Substrate: NC(=O)N[C@@H](O)C(=O)O
TEST_SUMMARY: purified protein
Format: biochemical, Escherichia coli
EXPERIMENTAL_CONTEXT: 3 mM NAD+ (saturating), 30 °C, value in parentheses is standard error, His-tag kept
PROPERTY_MEASURED: Km

protein="(S)-ureidoglycolate dehydrogenase (AllD) (Escherichia coli K-12; H44A) (protein, full length, modified pET28b with N-terminal His-tag and TEV site, expressed in E. coli BL21(DE3); tag cut for crystals, kept on mutant enzymes for kinetics; homodimer) MKISRETLHQLIENKLCQAGLKREHAATVAEVLVYADARGIHSAGAVRVEYYAERISKGGTNREPEFRLEETGPCSAILHADNAAGQVAAKMGMEHAIKTAQQNGVAVVGISRMGHSGAISYFVQQAARAGFIGISMCQSDPMVVPFGGAEIYYGTNPLAFAAPGEGDEILTFDMATTVQAWGKVLDARSRNMSIPDTWAVDKNGVPTTDPFAVHALLPAAGPKGYGLMMMIDVLSGVLLGLPFGRQVSSMYDDLHAGRNLGQLHIVINPNFFSSSELFRQHLSQTMRELNAITPAPGFNQVYYPGQDQDIKQRKAAVEGIEIVDDIYQYLISDALYNTSYETKNPFAQ" property_measured=Km result="16.94 (2.04) mM"
protein="(S)-ureidoglycolate dehydrogenase (AllD) (Escherichia coli K-12; D141E) (protein, full length, modified pET28b with N-terminal His-tag and TEV site, expressed in E. coli BL21(DE3); tag cut for crystals, kept on mutant enzymes for kinetics; homodimer) MKISRETLHQLIENKLCQAGLKREHAATVAEVLVYADARGIHSHGAVRVEYYAERISKGGTNREPEFRLEETGPCSAILHADNAAGQVAAKMGMEHAIKTAQQNGVAVVGISRMGHSGAISYFVQQAARAGFIGISMCQSEPMVVPFGGAEIYYGTNPLAFAAPGEGDEILTFDMATTVQAWGKVLDARSRNMSIPDTWAVDKNGVPTTDPFAVHALLPAAGPKGYGLMMMIDVLSGVLLGLPFGRQVSSMYDDLHAGRNLGQLHIVINPNFFSSSELFRQHLSQTMRELNAITPAPGFNQVYYPGQDQDIKQRKAAVEGIEIVDDIYQYLISDALYNTSYETKNPFAQ" property_measured=Km result="14.13 (2.37) mM"
protein="(S)-ureidoglycolate dehydrogenase (AllD) (Escherichia coli K-12; M251A) (protein, full length, modified pET28b with N-terminal His-tag and TEV site, expressed in E. coli BL21(DE3); tag cut for crystals, kept on mutant enzymes for kinetics; homodimer) MKISRETLHQLIENKLCQAGLKREHAATVAEVLVYADARGIHSHGAVRVEYYAERISKGGTNREPEFRLEETGPCSAILHADNAAGQVAAKMGMEHAIKTAQQNGVAVVGISRMGHSGAISYFVQQAARAGFIGISMCQSDPMVVPFGGAEIYYGTNPLAFAAPGEGDEILTFDMATTVQAWGKVLDARSRNMSIPDTWAVDKNGVPTTDPFAVHALLPAAGPKGYGLMMMIDVLSGVLLGLPFGRQVSSAYDDLHAGRNLGQLHIVINPNFFSSSELFRQHLSQTMRELNAITPAPGFNQVYYPGQDQDIKQRKAAVEGIEIVDDIYQYLISDALYNTSYETKNPFAQ" property_measured=Km result="13.15 (1.62) mM"
protein="(S)-ureidoglycolate dehydrogenase (AllD) (Escherichia coli K-12; S140A) (protein, full length, modified pET28b with N-terminal His-tag and TEV site, expressed in E. coli BL21(DE3); tag cut for crystals, kept on mutant enzymes for kinetics; homodimer) MKISRETLHQLIENKLCQAGLKREHAATVAEVLVYADARGIHSHGAVRVEYYAERISKGGTNREPEFRLEETGPCSAILHADNAAGQVAAKMGMEHAIKTAQQNGVAVVGISRMGHSGAISYFVQQAARAGFIGISMCQADPMVVPFGGAEIYYGTNPLAFAAPGEGDEILTFDMATTVQAWGKVLDARSRNMSIPDTWAVDKNGVPTTDPFAVHALLPAAGPKGYGLMMMIDVLSGVLLGLPFGRQVSSMYDDLHAGRNLGQLHIVINPNFFSSSELFRQHLSQTMRELNAITPAPGFNQVYYPGQDQDIKQRKAAVEGIEIVDDIYQYLISDALYNTSYETKNPFAQ" property_measured=Km result="12.38 (2.19) mM"
